Each recorded value in this set is attributed to paper PMC5684361.

Exercise: for every item that follows, state its recorded Ki.
# SYSTEM UNDER TEST: AquaOBP4
# EXPERIMENT: Fluorescence competitive binding assay with 1-NPN reporter
# Parameters: species or system Ambrostoma quadriimpressum
# EXPERIMENTAL PARAMETERS: Table 4; pH 7.2; 2 µM 1-NPN
Give bare numbers, in µM.

For each of the compounds below, note its Ki.
1. CC(C)COC(=O)c1ccccc1C(=O)OCC(C)C [Diisobutyl phthalate]
2. O=C/C=C/c1ccccc1

Response line:
26.8
79.3

Prompt line: Would you mind telling me what Ki value was observed for CCCCCCCCOC(=O)c1ccccc1C(=O)OCCCC [Butyl octyl phthalate] ?
Response line: 12.7

----------
# SYSTEM UNDER TEST: AquaOBP4
# EXPERIMENT: Fluorescence competitive binding assay with 1-NPN reporter
# Design: species or system Ambrostoma quadriimpressum
# EXPERIMENTAL PARAMETERS: pH 5
RECORDED ENDPOINT: Kd

Prompt line: Would you mind telling me what Kd value was observed for c1ccc(Nc2cccc3ccccc23)cc1 [1-NPN, N-phenyl-1-naphthylamine, reference compound] ?
Response line: 1490 nM

----------
# SYSTEM UNDER TEST: AquaOBP4
# EXPERIMENT: Fluorescence competitive binding assay with 1-NPN reporter
# Set-up: species or system Ambrostoma quadriimpressum
# EXPERIMENTAL PARAMETERS: Table 4
Exercise: for every item that follows, state its recorded pKi.
Answers are plain numbers.

For each of the compounds below, note its pKi.
1. CC/C=C\CCOC(=O)c1ccccc1 [cis-3-Hexenyl benzoate]
2. CC(C)COC(=O)c1ccccc1C(=O)OCC(C)C [Diisobutyl phthalate]
3. CCCCCCCCOC(=O)c1ccccc1C(=O)OCCCC [Butyl octyl phthalate]
4. CCCCOC(=O)c1ccccc1C(=O)OCCCC [Dibutyl phthalate]
5. CC(=O)/C=C/C1=C(C)CCCC1(C)C

Response line:
4.46
4.57
4.90
4.62
4.52

Prompt line: Would you mind telling me what pKi value was observed for O=C/C=C/c1ccccc1 ?
Response line: 4.10

----------
# SYSTEM UNDER TEST: AquaOBP4
# EXPERIMENT: Fluorescence competitive binding assay with 1-NPN reporter
# Design: species or system Ambrostoma quadriimpressum
# EXPERIMENTAL PARAMETERS: Table 4; pH 7.2; 2 µM 1-NPN
RECORDED ENDPOINT: IC50

For each of the molecules below, note its IC50.
1. CC/C=C\CCOC(=O)c1ccccc1 [cis-3-Hexenyl benzoate]
2. CC(=O)/C=C/C1=C(C)CCCC1(C)C
3. CC(C)COC(=O)c1ccccc1C(=O)OCC(C)C [Diisobutyl phthalate]

Response line:
["65.8 µM", "56.6 µM", "50.4 µM"]

----------
# SYSTEM UNDER TEST: AquaOBP4
# EXPERIMENT: Fluorescence competitive binding assay with 1-NPN reporter
# Set-up: species or system Ambrostoma quadriimpressum
# EXPERIMENTAL PARAMETERS: pH 5
RECORDED ENDPOINT: Ki
Please state the value followed by its unit.

Prompt line: Would you mind telling me what Ki value was observed for CCCCCCCCOC(=O)c1ccccc1C(=O)OCCCC [Butyl octyl phthalate] ?
Response line: 16.8 µM

----------
# SYSTEM UNDER TEST: AquaOBP4
# EXPERIMENT: Fluorescence competitive binding assay with 1-NPN reporter
# Design: species or system Ambrostoma quadriimpressum
# EXPERIMENTAL PARAMETERS: Table 3 and text; pH 7.2; 2 µM 1-NPN; calculated from IC50
RECORDED ENDPOINT: Ki (µM)
Give bare numbers, in µM.

For each of the compounds below, note its Ki.
1. CC/C=C\CCOC(=O)c1ccccc1 [cis-3-Hexenyl benzoate]
2. O=C/C=C/c1ccccc1 [Cinnamaldehyde]

Response line:
[35, 79.3]

For each of the compounds below, note its Ki.
1. CCCCOC(=O)c1ccccc1C(=O)OCCCC [Dibutyl phthalate]
2. CC(C)COC(=O)c1ccccc1C(=O)OCC(C)C [Diisobutyl phthalate]
3. CC(=O)/C=C/C1=C(C)CCCC1(C)C [β-Ionone]

Response line:
24.2
26.8
30.1
